# Avg % ID, L. Intestine per entry
experiment: Biodistribution of radiometal-DOTA-BBN conjugates in CF1 normal mice; details: 1 hour post-injection
Please reply with the bare figure in % ID and do not write the unit itself.

INSERT INTO results (compound, observed_value) VALUES
  ('CSCC[C@H](NC(=O)[C@H](CC(C)C)NC(=O)[C@H](Cc1cnc[nH]1)NC(=O)CNC(=O)[C@@H](NC(=O)[C@H](C)NC(=O)[C@H](Cc1c[nH]c2ccccc12)NC(=O)[C@H](CCC(N)=O)NC(=O)CN1CCN(CC(=O)O)CCN(CC(=O)O)CCN(CC(=O)O)CC1)C(C)C)C(N)=O [149Pm-DOTA-0-BBN[7-14]NH2]', 0.01);

QUERY: Look up and state reported Avg % ID, L. Intestine for CSCC[C@H](NC(=O)[C@H](CC(C)C)NC(=O)[C@H](Cc1cnc[nH]1)NC(=O)CNC(=O)[C@@H](NC(=O)[C@H](C)NC(=O)[C@H](Cc1c[nH]c2ccccc12)NC(=O)[C@H](CCC(N)=O)NC(=O)CN1CCN(CC(=O)O)CCN(CC(=O)O)CCN(CC(=O)O)CC1)C(C)C)C(N)=O [111In-DOTA-0-BBN[7-14]NH2] [metal not drawn]
RESULT: 0.10
